Target: GPR54 (Homo sapiens, UniProt Q969F8)
Sequence (Q969F8 whole entry): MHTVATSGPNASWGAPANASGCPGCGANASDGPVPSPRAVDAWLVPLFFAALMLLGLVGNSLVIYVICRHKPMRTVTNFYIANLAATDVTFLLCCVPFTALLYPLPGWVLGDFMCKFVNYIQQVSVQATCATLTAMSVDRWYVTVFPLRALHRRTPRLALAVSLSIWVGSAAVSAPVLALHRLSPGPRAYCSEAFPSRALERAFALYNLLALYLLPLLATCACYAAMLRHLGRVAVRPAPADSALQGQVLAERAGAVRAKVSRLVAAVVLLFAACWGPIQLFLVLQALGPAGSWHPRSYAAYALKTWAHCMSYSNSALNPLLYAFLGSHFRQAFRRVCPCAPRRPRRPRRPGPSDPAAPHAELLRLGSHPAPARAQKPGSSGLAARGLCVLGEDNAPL
Test: Inositol phosphate (IP) antagonism assay: inhibition of 10 nM kisspeptin-10 stimulation of IP in CHO/gpr-54 cells
Conditions: CHO cells; 10 nM kisspeptin-10; unit inferred, given in M
pIC50: −log10 of the molar value. Non-standard residues stand in square brackets, D forms with d. Residues, ends and D or L forms follow the SMILES beside them.

compound: CC(C)C[C@H](NC(=O)CNC(=O)[C@@H](Cc1ccccc1)NC(=O)CNC(=O)[C@H](CC(N)=O)NC(=O)[C@H](Cc1c[nH]c2ccccc12)NC(=O)[C@H](CC(N)=O)NC(=O)[C@@H](N)Cc1ccc(O)cc1)C(=O)N[C@@H](CCCNC(=N)N)C(=O)N[C@@H](Cc1ccccc1)C(N)=O [Peptide 211] (H-YNWNG[dF]GLRF-NH2)
pIC50: 6.00

compound: CC(=O)N[C@@H](Cc1ccc(O)cc1)C(=O)N[C@@H](CC(N)=O)C(=O)N[C@@H](Cc1c[nH]c2ccccc12)C(=O)N[C@@H](CC(N)=O)C(=O)NCC(=O)N[C@@H](Cc1ccccc1)C(=O)NCC(=O)N[C@H](Cc1c[nH]c2ccccc12)C(=O)N[C@@H](CCCNC(=N)N)C(=O)N[C@@H](Cc1ccccc1)C(N)=O [Peptide 228] (Ac-YNWNGFG[dW]RF-NH2)
pIC50: 7.30

compound: CC(=O)N[C@H](Cc1ccccc1)C(=O)N[C@@H](CC(N)=O)C(=O)N[C@@H](Cc1c[nH]c2ccccc12)C(=O)N[C@@H](CC(N)=O)C(=O)NCC(=O)N[C@@H](Cc1ccccc1)C(=O)NCC(=O)N[C@H](Cc1c[nH]c2ccccc12)C(=O)N[C@@H](CCCNC(=N)N)C(=O)N[C@@H](Cc1ccccc1)C(N)=O [Peptide 244] (Ac-[dF]NWNGFG[dW]RF-NH2)
pIC50: 8.00

compound: CC(=O)N[C@@H](Cc1ccc(O)cc1)C(=O)N[C@@H](CC(N)=O)C(=O)N[C@H](C)C(=O)N[C@@H](CC(N)=O)C(=O)NCC(=O)N[C@@H](Cc1ccccc1)C(=O)NCC(=O)N[C@H](Cc1c[nH]c2ccccc12)C(=O)N[C@@H](CCCNC(=N)N)C(=O)N[C@@H](Cc1ccccc1)C(N)=O [Peptide 235] (Ac-YN[dA]NGFG[dW]RF-NH2)
pIC50: 8.00

compound: CC(=O)N[C@@H](Cc1ccc(O)cc1)C(=O)N[C@H](CC(N)=O)C(=O)N[C@@H](Cc1c[nH]c2ccccc12)C(=O)N[C@@H](CC(N)=O)C(=O)NCC(=O)N[C@@H](Cc1ccccc1)C(=O)NCC(=O)N[C@H](Cc1c[nH]c2ccccc12)C(=O)N[C@@H](CCCNC(=N)N)C(=O)N[C@@H](Cc1ccccc1)C(N)=O [Peptide 232] (Ac-Y[dN]WNGFG[dW]RF-NH2)
pIC50: 7.52

compound: CC(=O)N[C@H](Cc1c[nH]c2ccccc12)C(=O)N[C@@H](CC(N)=O)C(=O)N[C@@H](Cc1c[nH]c2ccccc12)C(=O)N[C@@H](CC(N)=O)C(=O)NCC(=O)N[C@@H](Cc1ccccc1)C(=O)NCC(=O)N[C@H](Cc1c[nH]c2ccccc12)C(=O)N[C@@H](CCCNC(=N)N)C(=O)N[C@@H](Cc1ccccc1)C(N)=O [Peptide 243] (Ac-[dW]NWNGFG[dW]RF-NH2)
pIC50: 8.00

* * *

Molecular target: UniProt Q969F8
Test: Inositol phosphate (IP) antagonism assay: inhibition of 10 nM kisspeptin-10 stimulation of IP in CHO/gpr-54 cells
Type: cell-based
Design: G. Vassart, Univ; Brussels
Details: CHO cells; 10 nM kisspeptin-10
Non-standard residues stand in square brackets, D forms with d. Residues, ends and D or L forms follow the SMILES beside them.
Examples of compounds with documented Inhibition of IP stimulation by 10 nM Agonist: % Inhibition of Max follow.
resultType: Inhibition of IP stimulation by 10 nM Agonist: % Inhibition of Max (%)

compound: CC(=O)N[C@H](C)C(=O)N[C@@H](CC(N)=O)C(=O)N[C@@H](Cc1c[nH]c2ccccc12)C(=O)N[C@@H](CC(N)=O)C(=O)N[C@H](CO)C(=O)N[C@@H](Cc1ccccc1)C(=O)NCC(=O)N[C@H](Cc1c[nH]c2ccccc12)C(=O)N[C@@H](CCCNC(=N)N)C(=O)N[C@@H](Cc1ccccc1)C(N)=O [Peptide 273] (Ac-[dA]NWN[dS]FG[dW]RF-NH2)
unitSpec: %
recordedResult: 79
--
compound: CC(=O)N[C@H](Cc1ccccc1)C(=O)N[C@@H](Cc1c[nH]c2ccccc12)C(=O)N[C@@H](CC(C)C)C(=O)N[C@@H](CCCNC(=N)N)C(=O)N[C@@H](Cc1c[nH]c2ccccc12)C(N)=O [Peptide 203] (Ac-[dF]WLRW-NH2)
unitSpec: %
recordedResult: 71

* * *

Target: GPR54 (Homo sapiens, UniProt Q969F8)
Test: Inositol phosphate (IP) antagonism assay: inhibition of 10 nM kisspeptin-10 stimulation of IP in CHO/gpr-54 cells
Format: cell-based
Parameters: G. Vassart, Univ; Brussels
Conditions: CHO cells; 10 nM kisspeptin-10; unit inferred, given in M
Non-standard residues stand in square brackets, D forms with d. Residues, ends and D or L forms follow the SMILES beside them.
Examples of molecules with documented IC50 follow.
resultType: IC50

molecule: CC(=O)N[C@@H](Cc1ccccc1)C(=O)NCC(=O)N[C@@H](CC(C)C)C(=O)N[C@H](CCCNC(=N)N)C(=O)N[C@@H](Cc1c[nH]c2ccccc12)C(N)=O [Peptide 200]
recordedResult: 300 nM
--
molecule: CC(=O)N[C@H](Cc1ccccc1)C(=O)N[C@@H](Cc1c[nH]c2ccccc12)C(=O)N[C@@H](CC(C)C)C(=O)N[C@@H](CCCNC(=N)N)C(=O)N[C@@H](Cc1c[nH]c2ccccc12)C(N)=O [Peptide 203] (Ac-[dF]WLRW-NH2)
recordedResult: 0.1 nM
--
molecule: CC(=O)N[C@H](C)C(=O)N[C@@H](CC(N)=O)C(=O)N[C@@H](Cc1c[nH]c2ccccc12)C(=O)N[C@@H](CC(N)=O)C(=O)N1CCC[C@@H]1C(=O)N[C@@H](Cc1ccccc1)C(=O)NCC(=O)N[C@H](Cc1c[nH]c2ccccc12)C(=O)N[C@@H](CCCNC(=N)N)C(=O)N[C@@H](Cc1ccccc1)C(N)=O [Peptide 275] (Ac-[dA]NWN[dP]FG[dW]RF-NH2)
recordedResult: > 100 nM
--
molecule: CC(=O)N[C@@H](C)C(=O)NCC(=O)N[C@@H](CC(C)C)C(=O)N[C@@H](CCCNC(=N)N)C(=O)N[C@@H](Cc1c[nH]c2ccccc12)C(N)=O [Peptide 202] (Ac-AGLRW-NH2)
recordedResult: 10 nM

* * *

Target: GPR54 (Homo sapiens)
Assay: Inositol phosphate (IP) antagonism assay: inhibition of 10 nM kisspeptin-10 stimulation of IP in CHO/gpr-54 cells
Conditions: CHO cells; 10 nM kisspeptin-10; unit inferred, given in M
pIC50: −log10 of the molar value. Non-standard residues stand in square brackets, D forms with d. Residues, ends and D or L forms follow the SMILES beside them.
# binarize pIC50: threshold 7 inclusive, high side 1, low side -1

compound: CC(=O)N[C@H](C)C(=O)N[C@@H](CC(N)=O)C(=O)N[C@@H](Cc1c[nH]c2ccccc12)C(=O)N[C@@H](CC(N)=O)C(=O)NCC(=O)N[C@H](Cc1c[nH]c2ccccc12)C(=O)NCC(=O)N[C@H](Cc1c[nH]c2ccccc12)C(=O)N[C@@H](CCCNC(=N)N)C(=O)N[C@@H](Cc1ccccc1)C(N)=O [Peptide 246] (Ac-[dA]NWNG[dW]G[dW]RF-NH2)
class: 1
//
compound: CC(=O)N[C@H](C)C(=O)N[C@@H](CC(N)=O)C(=O)N[C@@H](Cc1c[nH]c2ccccc12)C(=O)N[C@@H](CC(N)=O)C(=O)NCC(=O)N[C@@H](Cc1ccccc1)C(=O)NCC(=O)N[C@@H](CC(C)C)C(=O)N[C@H](CCCNC(=N)N)C(=O)N[C@@H](Cc1ccccc1)C(N)=O [Peptide 278] (Ac-[dA]NWNGFGL[dR]F-NH2)
class: -1
//
compound: CC(=O)N[C@H](Cc1ccc(O)cc1)C(=O)N[C@@H](CC(N)=O)C(=O)N[C@@H](Cc1c[nH]c2ccccc12)C(=O)N[C@@H](CC(N)=O)C(=O)NCC(=O)N[C@@H](Cc1ccccc1)C(=O)NCC(=O)N[C@H](Cc1c[nH]c2ccccc12)C(=O)N[C@@H](CCCNC(=N)N)C(=O)N[C@@H](Cc1ccccc1)C(N)=O [Peptide 230] (Ac-[dY]NWNGFG[dW]RF-NH2)
class: 1
//
compound: CC(=O)N[C@@H](Cc1ccc(O)cc1)C(=O)N[C@H](C)C(=O)N[C@@H](Cc1c[nH]c2ccccc12)C(=O)N[C@@H](CC(N)=O)C(=O)NCC(=O)N[C@@H](Cc1ccccc1)C(=O)NCC(=O)N[C@H](Cc1c[nH]c2ccccc12)C(=O)N[C@@H](CCCNC(=N)N)C(=O)N[C@@H](Cc1ccccc1)C(N)=O [Peptide 236] (Ac-Y[dA]WNGFG[dW]RF-NH2)
class: 1
//
compound: CC(=O)N[C@H](C)C(=O)N[C@@H](CC(N)=O)C(=O)N[C@@H](Cc1c[nH]c2ccccc12)C(=O)N[C@@H](CC(N)=O)C(=O)N[C@H](CO)C(=O)N[C@@H](Cc1ccccc1)C(=O)NCC(=O)N[C@H](Cc1c[nH]c2ccccc12)C(=O)N[C@@H](CCCNC(=N)N)C(=O)N[C@@H](Cc1ccccc1)C(N)=O [Peptide 273] (Ac-[dA]NWN[dS]FG[dW]RF-NH2)
class: 1
//
compound: N=C(N)NCCC[C@H](NC(=O)[C@@H](Cc1c[nH]c2ccccc12)NC(=O)CNC(=O)[C@H](Cc1ccccc1)NC(=O)CNC(=O)[C@H](CC(N)=O)NC(=O)[C@H](Cc1c[nH]c2ccccc12)NC(=O)[C@H](CC(N)=O)NC(=O)[C@@H](N)Cc1ccc(O)cc1)C(=O)N[C@@H](Cc1ccccc1)C(N)=O [Peptide 210] (H-YNWNGFG[dW]RF-NH2)
class: 1
//
compound: CC(=O)N[C@@H](Cc1ccc(O)cc1)C(=O)N[C@@H](CC(N)=O)C(=O)N[C@@H](Cc1c[nH]c2ccccc12)C(=O)N[C@@H](CC(N)=O)C(=O)N[C@H](C)C(=O)N[C@@H](Cc1ccccc1)C(=O)NCC(=O)N[C@H](Cc1c[nH]c2ccccc12)C(=O)N[C@@H](CCCNC(=N)N)C(=O)N[C@@H](Cc1ccccc1)C(N)=O [Peptide 233] (Ac-YNWN[dA]FG[dW]RF-NH2)
class: 1
//
compound: CC(=O)N[C@@H](Cc1ccc(O)cc1)C(=O)N[C@@H](CC(N)=O)C(=O)N[C@H](Cc1c[nH]c2ccccc12)C(=O)N[C@@H](CC(N)=O)C(=O)NCC(=O)N[C@@H](Cc1ccccc1)C(=O)NCC(=O)N[C@H](Cc1c[nH]c2ccccc12)C(=O)N[C@@H](CCCNC(=N)N)C(=O)N[C@@H](Cc1ccccc1)C(N)=O [Peptide 231] (Ac-YN[dW]NGFG[dW]RF-NH2)
class: 1
//
compound: CC(=O)N[C@@H](Cc1ccc(O)cc1)C(=O)N[C@@H](CC(N)=O)C(=O)N[C@@H](Cc1c[nH]c2ccccc12)C(=O)N[C@@H](CC(N)=O)C(=O)N[C@H](Cc1c[nH]c2ccccc12)C(=O)N[C@@H](Cc1ccccc1)C(=O)NCC(=O)N[C@H](Cc1c[nH]c2ccccc12)C(=O)N[C@@H](CCCNC(=N)N)C(=O)N[C@@H](Cc1ccccc1)C(N)=O [Peptide 229] (Ac-YNWN[dW]FG[dW]RF-NH2)
class: -1
